- assayed_target: Arabidopsis thaliana S653N-mutant ALS (Arabidopsis thaliana, UniProt P17597, E575Q/S653N)
- Construct: vector-encoded N-terminal fusion of pET-32a(+) (Trx/His/S tag by own knowledge); made in house; host or cells: Escherichia coli AD494
- assay_remarks: biochemical
- study_conditions: relative to WT; from measured pI50
measure: Resistance Factor S653N
Answer field: number only, no words.

Example results:
Asked: Given the entry COc1cc(OC)n2nc(NS(=O)(=O)c3c(C(F)(F)F)ccnc3OC)nc2n1 , report its measured Resistance Factor S653N.
Given back: 63

Asked: Given the molecule CCS(=O)(=O)c1nc2ccccn2c1S(=O)(=O)NC(=O)Nc1nc(OC)cc(OC)n1 , what is its reported Resistance Factor S653N?
Given back: 5

Asked: Find the recorded Resistance Factor S653N belonging to CCCOc1nn(C(=O)[N-]S(=O)(=O)c2ccccc2C(=O)OC)c(=O)n1C.[Na+] [Propoxycarbazone, propoxycarbazone-sodium] and report it.
Given back: 25

Asked: May I ask what Resistance Factor S653N has been recorded for COc1cc(OC)nc(NC(=O)NS(=O)(=O)c2cc(NC=O)ccc2C(=O)N(C)C)n1 ?
Given back: 10

Asked: State the recorded Resistance Factor S653N for this entry: CCS(=O)(=O)c1cccnc1S(=O)(=O)NC(=O)Nc1nc(OC)cc(OC)n1
Given back: 1

Further cases:
Asked: GET /values?readout=Resistance Factor S653N&item= COc1cc(OC)nc(NC(=O)NS(=O)(=O)N(C)S(C)(=O)=O)n1
Given back: 0

Asked: Look up Resistance Factor S653N for this molecule: COc1cc(OC)n2nc(S(=O)(=O)Nc3c(Cl)ccc(C)c3Cl)nc2n1
Given back: 3

Asked: For the molecule shown here, COC(=O)c1sccc1S(=O)(=O)NC(=O)Nc1nc(C)nc(OC)n1 , give the reported Resistance Factor S653N.
Given back: 5
